# kon per record follows
biological target: T1, p5 peptide of EGFL7 (human); experiment: SPR (Biacore), IgG over immobilized P5 peptide at 37 C;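 further: IgG variants injected at 0.5–1000 nM (2-fold series), 3 min association and 3.5 min dissociation, reference flow cell subtracted, kinetics fitted with a 1:1 Langmuir model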
T1 construct: also called Peptide P5
T1 peptide: RACSTYRTIYRTA

BINDER | kon / M⁻¹ s⁻¹
18F7.v6K IgG (antibody, V domains shown, IgG; also called hu18F7.v6k; h18F7.v6k) VH: EVQLVESGGGLVQPGGSLRLSCAASGYTFIDYYMNWVRQAPGKGLEWVGDINLDNSGTHYNQKFKGRFTISRDKSKNTAYLQMNSLRAEDTAVYYCAREGVYHDYDDYAMDYWGQGTLVTVSS VL: DIQMTQSPSSLSASVGDRVTITCRTSQSLVHINAITYLHWYQQKPGKAPKLLIYRVSNRFSGVPSRFSGSGSGTDFTLTISSLQPEDFATYYCGQSTHVPLTFGQGTKVEIKR | 127000
18F7.v10 IgG (antibody, V domains shown, IgG; Kabat numbering) VH: EVQLVESGGGLVQPGGSLRLSCAASGYTFIDYYMNWVRQAPGKGLEWVGDINLDNGGTHYNQKFKGRFTISRDKSKNTAYLQMNSLRAEDTAVYYCAREGVYHPYDDYAMDYWGQGTLVTVSS VL: DIQMTQSPSSLSASVGDRVTITCRTSQSLVHINGITYLHWYQQKPGKAPKLLIYRVSNRFSGVPSRFSGSGSGTDFTLTISSLQPEDFATYYCSQSTHVPLTFGQGTKVEIK | 825000
18F7.v1 IgG (18F7-graft) (antibody, V domains shown, Expressed as IgG) VH: EVQLVESGGGLVQPGGSLRLSCAASGYTFIDYYMNWVRQAPGKGLEWVGDINLDNGGTHYNQKFKGRFTISRDNSKNTLYLQMNSLRAEDTAVYYCAREGVYHDYDDYAMDYWGQGTLVTVSS VL: DIQMTQSPSSLSASVGDRVTITCRTSQSLVHINGITYLHWYQQKPGKAPKLLIYRVSNRFSGVPSRFSGSGSGTDFTLTISSLQPEDFATYYCSQSTHVPLTFGQGTKVEIKR | 317000
18F7.v3 IgG (antibody, name in Kabat numbering, V domains shown, IgG; Kabat numbering; also called 18F7-KA) VH: EVQLVESGGGLVQPGGSLRLSCAASGYTFIDYYMNWVRQAPGKGLEWVGDINLDNGGTHYNQKFKGRFTISRDKSKNTAYLQMNSLRAEDTAVYYCAREGVYHDYDDYAMDYWGQGTLVTVSS VL: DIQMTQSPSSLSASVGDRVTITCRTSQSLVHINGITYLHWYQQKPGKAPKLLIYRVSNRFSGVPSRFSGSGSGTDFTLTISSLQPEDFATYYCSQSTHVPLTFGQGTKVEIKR | 203000
18F7.v5 IgG (antibody, V domains shown, IgG; Kabat numbering) VH: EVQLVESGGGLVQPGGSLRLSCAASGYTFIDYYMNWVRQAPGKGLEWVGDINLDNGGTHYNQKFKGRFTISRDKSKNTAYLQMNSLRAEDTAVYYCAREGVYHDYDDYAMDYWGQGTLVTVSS VL: DIQMTQSPSSLSASVGDRVTITCRTSQSLVHINGITYLHWYQQKPGKAPKLLIYRVSNRGSGVPSRFSGSGSGTDFTLTISSLQPEDFATYYCSQSTHVPLTFGQGTKVEIK | 330000
